# Tested on: methicillin-sensitive Staphylococcus epidermidis (MSSE)
# METHOD_DESCRIPTION: MIC, two-fold agar dilution (CLSI), clinical isolates
# Type: cell-based
# CONDITION_SUMMARY: strain MSSE 14-1
MEASUREMENT_KIND: MIC (anti-bacterial activity)

CCCC[C@H](CN(O)C=O)C(=O)N1CC2(CC2)C[C@H]1c1nc2ccccc2[nH]1 [Example 10] :: 0.5 µg/mL
CCCC[C@H](CN(O)C=O)C(=O)N1CC2(CC2)C[C@H]1C(=O)Nc1ncc(C)s1 [Example 6] :: < 0.008 µg/mL
CCCC[C@H](CN(O)C=O)C(=O)N1CC2(CC2)C[C@H]1c1nc(-c2cccnc2)no1 [Example 11] :: 0.125 µg/mL
CCCC[C@H](CN(O)C=O)C(=O)N1CC2(CC2)C[C@H]1c1nnc2ccccn12 [Example 13] :: 0.25 µg/mL
CCCC[C@H](CN(O)C=O)C(=O)N1CC2(CC2)C[C@H]1C(=O)Nc1cc(C(C)(C)C)on1 [Example 3] :: 0.03 µg/mL

* * *

# Tested on: Escherichia coli (including ESBLs, non-ESBLs)
# METHOD_DESCRIPTION: MIC, two-fold agar dilution (CLSI), clinical isolates
# Type: cell-based
# CONDITION_SUMMARY: clinical isolate ECO+ 15-3
# Excerpt: 1. The invention adopts the two-fold agar dilution method recommended by the operating procedure of antimicrobial susceptibility testing set by American Clinical and Laboratory Standards Institute (CLSI) to determine the Minimum Inhibitory Concentration (MIC) of the test samples against the tested strains.
MEASUREMENT_KIND: Anti-bacterial activity (MIC), strain ECO+ 15-3 (µg/mL)

O=C(C[C@@H](CC1CCCC1)C(=O)N1CC2(CC2)C[C@H]1C(=O)Nc1ccncn1)NO :: 16
O=CN(O)C[C@@H](CC1CCCC1)C(=O)N1CC2(CC2)C[C@H]1c1nc2ccccc2[nH]1 :: 32
O=C(C[C@@H](CC1CCCC1)C(=O)N1CC2(CC2)C[C@H]1C(=O)Nc1ncccc1F)NO :: 32
O=C(C[C@@H](CC1CCCC1)C(=O)N1CC2(CC2)C[C@H]1C(=O)Nc1ncco1)NO :: 32
O=C(C[C@@H](CC1CCCC1)C(=O)N1CC2(CC2)C[C@H]1C(=O)Nc1cccnn1)NO :: 16

* * *

# System: Enterococcus faecalis (EFA)
# METHOD_DESCRIPTION: MIC, two-fold agar dilution (CLSI), clinical isolates
# Format: cell-based
# CONDITION_SUMMARY: strain EFA 15-2
MEASUREMENT_KIND: Anti-bacterial activity (MIC) (µg/mL)

O=C(C[C@@H](CC1CCCC1)C(=O)N1CC2(CC2)C[C@H]1C(=O)Nc1nc(C(F)(F)F)cs1)NO :: 2
CCCC[C@H](CC(=O)NO)C(=O)N1CC2(CCCC2)C[C@H]1C(=O)Nc1cnccn1 :: 32
O=C(C[C@@H](CC1CCCC1)C(=O)N1CC2(CC2)C[C@H]1C(=O)Nc1ncccc1F)NO :: 32
O=C(C[C@@H](CC1CCCC1)C(=O)N1CC2(CC2)C[C@H]1C(=O)Nc1cccnn1)NO :: 4

* * *

# Test system: Escherichia coli (including ESBLs, non-ESBLs)
# METHOD_DESCRIPTION: MIC, two-fold agar dilution (CLSI), clinical isolates
# Format: cell-based
# CONDITION_SUMMARY: strain ECO− 15-2
MEASUREMENT_KIND: MIC (anti-bacterial activity)

COC(=O)c1sccc1NC(=O)[C@@H]1CC2(CC2)CN1C(=O)[C@H](CC1CCCC1)CN(O)C=O [Example 34] :: 128 µg/mL
O=CN(O)C[C@@H](CC1CCCC1)C(=O)N1CC2(CC2)C[C@H]1C(=O)Nc1ccncn1 [Example 27] :: 32 µg/mL
O=CN(O)C[C@@H](CC1CCCC1)C(=O)N1CC2(CC2)C[C@H]1C(=O)NC1CC1 [Example 32] :: > 32 µg/mL
CCCC[C@H](CN(O)C=O)C(=O)N1CC2(CC2)C[C@H]1C(=O)Nc1nc(C)cs1 [Example 19] :: > 32 µg/mL
O=CN(O)C[C@@H](CC1CCCC1)C(=O)N1CC2(CC2)C[C@H]1C(=O)Nc1ncco1 [Example 36] :: 32 µg/mL
O=CN(O)C[C@@H](CC1CCCC1)C(=O)N1CC2(CC2)C[C@H]1C(=O)N1CCS(=O)(=O)CC1 [Example 35] :: > 32 µg/mL
CCCC[C@H](CN(O)C=O)C(=O)N1CC2(CC2)C[C@H]1C(=O)NC1CC1 [Example 18] :: > 32 µg/mL
CCCC[C@H](CN(O)C=O)C(=O)N1CC2(CC2)C[C@H]1C(=O)Nc1nncs1 [Example 23] :: > 32 µg/mL
O=CN(O)C[C@@H](CC1CCCC1)C(=O)N1CC2(CC2)C[C@H]1C(=O)Nc1ccc(N2CCOCC2)cc1 [Example 25] :: > 32 µg/mL

* * *

# Tested on: Enterococcus faecium (EFM)
# METHOD_DESCRIPTION: MIC, two-fold agar dilution (CLSI), clinical isolates
# Type: cell-based
# CONDITION_SUMMARY: strain EFM 15-2
Reported Anti-bacterial activity (MIC) by item:
MEASUREMENT_KIND: Anti-bacterial activity (MIC) (mg/L)

CCCC[C@H](CC(=O)NO)C(=O)N1CC2(CCCC2)C[C@H]1C(=O)Nc1cc(C)on1 [Example 80] :: 4
O=C(C[C@@H](CC1CCCC1)C(=O)N1CC2(CC2)C[C@H]1C(=O)Nc1nc(C(F)(F)F)cs1)NO [Example 73] :: 1
O=C(C[C@@H](CC1CCCC1)C(=O)N1CC2(CC2)C[C@H]1C(=O)Nc1nccs1)NO [Example 72] :: 32
O=C(C[C@@H](CC1CCCC1)C(=O)N1CC2(CC2)C[C@H]1C(=O)Nc1ccno1)NO [Example 70] :: 32
O=C(C[C@@H](CC1CCCC1)C(=O)N1CC2(CC2)C[C@H]1C(=O)Nc1cccnn1)NO [Example 66] :: 16
CCCC[C@H](CC(=O)NO)C(=O)N1CC2(CCCC2)C[C@H]1C(=O)Nc1cnccn1 [Example 77] :: 32
CCCC[C@H](CN(O)C=O)C(=O)N1CCC[C@H]1C(=O)Nc1ccc(F)c[n+]1[O-] [LBM415, reference compound] :: 2
Cc1cc(NC(=O)[C@@H]2CC3(CC3)CN2C(=O)[C@@H](CC(=O)NO)CC2CCCC2)no1 [Example 71] :: 2
O=C(C[C@@H](CC1CCCC1)C(=O)N1CC2(CC2)C[C@H]1C(=O)Nc1nncs1)NO [Example 74] :: 32
CCCC[C@H](CC(=O)NO)C(=O)N1CC2(CCCC2)C[C@H]1C(=O)Nc1ncc(C)s1 [Example 79] :: 32

* * *

# Tested on: Jurkat T cell leukemia cell line
# METHOD_DESCRIPTION: CCK-8 proliferation inhibition
# Type: cell-based
# CONDITION_SUMMARY: Homo sapiens, 72 hours
MEASUREMENT_KIND: IC50 (µM)

O=C(C[C@@H](CC1CCCC1)C(=O)N1CC2(CC2)C[C@H]1C(=O)Nc1ccc(F)cn1)NO :: 7.61

* * *

# Test system: methicillin-sensitive Staphylococcus epidermidis (MSSE)
# METHOD_DESCRIPTION: MIC, two-fold agar dilution (CLSI), clinical isolates
# Format: cell-based
# CONDITION_SUMMARY: strain MSSE 15-6
# Source text: 1. The invention adopts the two-fold agar dilution method recommended by the operating procedure of antimicrobial susceptibility testing set by American Clinical and Laboratory Standards Institute (CLSI) to determine the Minimum Inhibitory Concentration (MIC) of the test samples against the tested strains.
Threshold 0.2 mg/L. MIC (anti-bacterial activity) below it: Fulfilled. MIC (anti-bacterial activity) at it or above: Not fulfilled.

CCCC[C@H](CN(O)C=O)C(=O)N1CC2(CC2)C[C@H]1C(=O)Nc1cnccn1 :: Fulfilled
O=CN(O)C[C@@H](CC1CCCC1)C(=O)N1CC2(CC2)C[C@H]1C(=O)N1CCS(=O)(=O)CC1 :: Not fulfilled
CCCC[C@H](CN(O)C=O)C(=O)N1CC2(CC2)C[C@H]1C(=O)Nc1nc(C)cs1 :: Fulfilled
Cc1cc(NC(=O)[C@@H]2CC3(CC3)CN2C(=O)[C@H](CC2CCCC2)CN(O)C=O)no1 :: Not fulfilled
O=CN(O)C[C@@H](CC1CCCC1)C(=O)N1CC2(CC2)C[C@H]1C(=O)Nc1ccc(F)cn1 :: Fulfilled
CCCC[C@H](CN(O)C=O)C(=O)N1CC2(CC2)C[C@H]1c1nc2ccccc2n1CCN(C)C :: Not fulfilled
O=CN(O)C[C@@H](CC1CCCC1)C(=O)N1CC2(CC2)C[C@H]1C(=O)NC1CC1 :: Not fulfilled
O=CN(O)C[C@@H](CC1CCCC1)C(=O)N1CC2(CC2)C[C@H]1C(=O)Nc1ccncn1 :: Fulfilled
CC(C)(C)c1cc(NC(=O)[C@@H]2CC3(CC3)CN2C(=O)[C@H](CC2CCCC2)CN(O)C=O)no1 :: Fulfilled
Cc1csc(NC(=O)[C@@H]2CC3(CC3)CN2C(=O)[C@H](CC2CCCC2)CN(O)C=O)n1 :: Fulfilled
O=CN(O)C[C@@H](CC1CCCC1)C(=O)N1CC2(CC2)C[C@H]1C(=O)Nc1ncco1 :: Not fulfilled
O=CN(O)C[C@@H](CC1CCCC1)C(=O)N1CC2(CC2)C[C@H]1C(=O)Nc1cc[nH]n1 :: Not fulfilled
CCCC[C@H](CN(O)C=O)C(=O)N1CC2(CC2)C[C@H]1C(=O)Nc1ccc(N2CCOCC2)cc1 :: Fulfilled
CCCC[C@H](CN(O)C=O)C(=O)N1CC2(CC2)C[C@H]1C(=O)Nc1ccncn1 :: Fulfilled
O=CN(O)C[C@@H](CC1CCCC1)C(=O)N1CC2(CC2)C[C@H]1C(=O)Nc1ncccc1F :: Not fulfilled
O=CN(O)C[C@@H](CC1CCCC1)C(=O)N1CC2(CC2)C[C@H]1C(=O)Nc1ccc(N2CCOCC2)cc1 :: Not fulfilled
CCCC[C@H](CN(O)C=O)C(=O)N1CC2(CC2)C[C@H]1C(=O)Nc1nncs1 :: Not fulfilled
CCCC[C@H](CN(O)C=O)C(=O)N1CC2(CC2)C[C@H]1C(=O)Nc1nccs1 :: Fulfilled
CCCC[C@H](CN(O)C=O)C(=O)N1CC2(CC2)C[C@H]1C(=O)Nc1ccno1 :: Not fulfilled
Cc1cnc(NC(=O)[C@@H]2CC3(CC3)CN2C(=O)[C@H](CC2CCCC2)CN(O)C=O)s1 :: Fulfilled
COC(=O)c1sccc1NC(=O)[C@@H]1CC2(CC2)CN1C(=O)[C@H](CC1CCCC1)CN(O)C=O :: Not fulfilled
CCCC[C@H](CN(O)C=O)C(=O)N1CC2(CC2)C[C@H]1C(=O)NC1CC1 :: Not fulfilled
CCCC[C@H](CN(O)C=O)C(=O)N1CC2(CC2)C[C@H]1C(=O)Nc1cc(C)on1 :: Fulfilled
O=CN(O)C[C@@H](CC1CCCC1)C(=O)N1CC2(CC2)C[C@H]1C(=O)Nc1ccno1 :: Not fulfilled
O=CN(O)C[C@@H](CC1CCCC1)C(=O)N1CC2(CC2)C[C@H]1C(=O)Nc1cnccn1 :: Not fulfilled
